Molecular target: T1, human CD276 protein (human, UniProt Q5ZPR3 29-534)
T1 construct: whole, on cells; for SKOV3 and the other cancer lines the protein is the cells' own; also called B7-H3; B7H3
T1 sequence (looked up): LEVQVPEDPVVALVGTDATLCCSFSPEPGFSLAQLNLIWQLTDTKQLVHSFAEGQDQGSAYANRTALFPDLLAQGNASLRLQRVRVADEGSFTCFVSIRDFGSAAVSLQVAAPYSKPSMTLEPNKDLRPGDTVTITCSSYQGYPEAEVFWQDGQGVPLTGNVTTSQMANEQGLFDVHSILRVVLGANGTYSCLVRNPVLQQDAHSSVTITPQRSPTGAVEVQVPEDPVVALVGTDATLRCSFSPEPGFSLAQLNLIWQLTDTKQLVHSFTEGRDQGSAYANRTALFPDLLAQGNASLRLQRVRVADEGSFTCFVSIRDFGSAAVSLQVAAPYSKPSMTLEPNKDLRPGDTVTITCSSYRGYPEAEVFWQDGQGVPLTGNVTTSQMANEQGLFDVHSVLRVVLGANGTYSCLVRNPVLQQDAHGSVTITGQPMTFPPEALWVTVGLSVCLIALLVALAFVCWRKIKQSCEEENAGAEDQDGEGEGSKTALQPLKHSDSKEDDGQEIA
Test: FACS on SKOV3 cells
MFI (Max) overview
Please reply with the number alone, leaving off any unit.

Examples from the recorded data:
binder	experimental-value
14-E7-G9-D4 (human IgG1 chimeric antibody) (antibody, V domains shown, human IgG1 chimeric antibody of the mouse clone) VH: EVQLQQSGPELVKPGASVKMSCKASGYTFTNYIMHWVKQKPGQGLEWIGYINPYNDGIKYNEKFKGKATLTSDKSSSTAYMELSSLTSEDSAVYYCTRWGNYVFYYTMDYWGQGTSVTVSS VL: QIVLSQSPAILSASPGEKVTMTCRASSSVSYMHWYQQKPGSSPKPWIYATSNLASGVPARFSGSGSGTSYSLTISRMEAEDAATYYCQQWSGNPPLTFGAGTKLELK	2730
21-B3-B1-H5 (human IgG1 chimeric antibody) (antibody, V domains shown, human IgG1 chimeric antibody of the mouse clone) VH: QIQLVQSGPELKKPGETVKISCKASGYIFRNYGMNWVKQAPGKGLKWMGWINSYTGKPTYVDDFKGRFAFSLETSASTAYLQINNLKNEDMATYFCARDDGYWYTMDYWGQGTSVTVSS VL: DVVMTQTPLSLPVSLGDQASISCRSSQSLVHSNGHTYLHWYLQKPGQSPKLLIYKVSNRFSGVPDRFSGSGSGTDFTLKISRVEAEDLGVYFCSQSTHVPWTFGGGTKLEIK	2720
13-E4-G9-A4 (human IgG1 chimeric antibody) (antibody, V domains shown, human IgG1 chimeric antibody of the mouse clone) VH: EVMLVESGGGLVKPGGSLKFSCAASGFTFITYAMSWVRQTPEKRLEWVATISGGGIDTYYPDSVKGRFTISRDNAKNTLYLQVNSLRSEDTAMYYCTRQGSQGWGAMDYWGQGTSVTVSS VL: QIVLTQSPPIMSASPGERVTMTCRASSRVSFMHWYQQKSGTSPRRWIYETSKLASGVPDRFSGSVSGTSYSLTISSMEAEDAATYYCQQWSSNPLTFGAGTKLELK	3080

Consider the additional binder presented here.
# MFI (Max) lookup, item 9-G2-H6-E4 (human IgG1 chimeric antibody) (antibody, V domains shown, human IgG1 chimeric antibody of the mouse clone) VH: EVQLQQSGPDLVKPGASVKISCKASGYSFTGYFMNWVKQRHGKSLEWIGYINPNNGDTIYNQKFKGKATLTVDKSSSTAHMELLSLTSEDSAVYYCGRGGLPFGALDYWGQGTSVTVSS VL: DIVMSQSPSSLAVSVGEKVNMSCKSSQSLLYSRNQKNYLAWNQQKPGQSPKLLIYWASARESGVPDRFTGSGSGTDFTLTISSVKAEDLAAYYCQQYHSYPYTFGGGTKLELK
292
